- assay-text: Human HepG2 cell viability assay in 384 well format
- Type: toxicity, cell-based
- Design: dose 125 nL, time 70.5 hour; concentration not given beside the values
- settings: HepG2 cells, read-out: Inhibition
property-label: cytotoxicity at 70.5 h (%)
Numbers only, in %.

Example results:
> print(dat)
                           structure.smiles  unit.string  endpoint.result
1  C[C@@H]1CN(C(=O)c2cccn2C)C[C@]12CCN(c1ccsc1)C2=O            %            -13.8
2    Cc1ccc(-c2nc(CN3CCn4c(C)nnc4C3)co2)cc1            %            -6.98

Fill in cytotoxicity at 70.5 h for each of the 4 molecules listed.
1. COC(=O)CC1CCN(C(=O)c2ccccc2-n2nnnc2C)CC1
2. O=c1[nH]ccn1CCCN1CC=C(c2cnn(-c3ccccc3)c2)CC1
3. O=C(Nc1ccccc1)N1C[C@@H]2OCCN(C(=O)c3ccco3)[C@@H]2C1
4. CCN1C[C@H]2C[C@H](C(=O)NCc3cccnc3)[C@@H](C1)O2

Data returned:
[-12.6, -2.11, -0.595, 3.07]

Hello, the source for this data is ChEMBL document CHEMBL3507680, in case you need it.
